Tested on: RXF 393 renal
Experimental protocol: NCI-60 one-dose screen, 48 h (100 = growth as untreated, 0 = no growth, -100 = all killed)
Measurement context: 10 µM unless noted
This is part of a sample that, as a whole, favours compounds with a hit. Of some 83,000 tested, about 20% had one in any assay.
Endpoint name: growth (%)
Report the value in % with no unit label.

Here are 5 compounds together with their reported answers.
(Q) Name the recorded growth of the compound listed here: O=C(OCCCCOC(=O)n1cnc2ccccc21)n1cnc2ccccc21
(A) 107

(Q) Dear colleague, please send me the reported growth for COc1ccc(-c2nc(-c3ccccc3)c(-c3ccccc3)n2C2CC2)cc1OC1CCCCC1 when you can.
(A) 73.7

(Q) Return reported growth. Input compound: COc1cc2c(cc1OC)C1(C)N(CC2)C(=O)OC1(C)C (stereo not given)
(A) 99

(Q) Entry O=S(=O)(NCCCNc1cc(-c2cn(-c3ccccc3)nc2-c2cccc(O)c2)ccn1)c1ccc(Br)cc1 needs its growth filled in; supply it.
(A) 2.04

(Q) Return growth (reported value) for this compound: CC(C)(C)c1ccc(S(=O)(=O)Oc2ccc3c4c(c(=O)oc3c2)CCCCC4)cc1
(A) 48.1

Further cases:
(Q) Please indicate growth recorded for Nc1c(C(=O)Nc2c(Cl)cccc2Cl)sc2nc3c(cc12)CCCCC3
(A) 3.29

(Q) Indicate the recorded growth value for this compound: O=C(O)c1cn(C2CC2)c2cc(N3CCN(S(=O)(=O)c4ccc(Cl)c(Cl)c4)CC3)c(F)cc2c1=O
(A) 29.1

(Q) Could you please provide reported growth for COC1=CC(c2ccc[nH]2)=N/C1=C\c1[nH]c(C)c(CCCn2cc(CCCCCCCCC[C@@H]3Cc4cc(O)ccc4C4CC[C@]5(C)[C@@H](O)CC[C@H]5C43)nn2)c1C (stereo not given in full) ? Thanks!
(A) 28.1

###

Test system: NCI/ADR-RES ovarian
Experimental protocol: NCI-60 one-dose screen, 48 h (100 = growth as untreated, 0 = no growth, -100 = all killed)
Measurement context: 10 µM unless noted
This is part of a sample that, as a whole, favours compounds with a hit. Of some 83,000 tested, about 20% had one in any assay.
Let's look at some molecules and their measured growth.
Write the number in % without appending the unit.

(Q) Give growth; test system NCI/ADR-RES ovarian; molecule COc1cc(C(=O)OCCCCCCCCCCC[P+](c2ccccc2)(c2ccccc2)c2ccccc2)ccc1O
(A) 50.6

(Q) Under NCI/ADR-RES ovarian, report growth for COc1ccc(-c2nc(-c3ccccc3)c(-c3ccccc3)n2C2CC2)cc1OC1CCCCC1
(A) 55.3

(Q) Look up NCI/ADR-RES ovarian data: growth of CCCC(C(=O)OCC)C(C)OC(=O)OCC (stereo not drawn) , then report it.
(A) 105

Turning to the following molecule.
(Q) // fetch growth; item: Cc1cc(N/C=c2\sc3ncnn3c2=O)no1 ; system: NCI/ADR-RES ovarian
(A) 99.1

###

Test system: MOLT-4 leukemia
Experimental protocol: NCI-60 one-dose screen, 48 h
Measurement context: 10 µM unless noted
Compounds without any hit were thinned out: in the full panel of roughly 83,000, 20% have a hit. The source made the active and inactive calls. How the source made its calls: active means growth percent below 10; inactive means the rest.
Your answer must be one of the following: 1 (yes) (active), 0 (no) (inactive)

(Q) Status in this test for Nc1c(C(=O)c2ccc(F)cc2)sc2nc3c(cc12)CCCC3 ?
(A) 0 (no)

(Q) Lab log entry: COc1cccc2nc(Nc3ccc(NC(=O)c4ccc5ncccc5c4)cc3)ccc12 — outcome as called in the assay?
(A) 0 (no)

(Q) Called result for COc1cccc2cc(-c3cc4ccccc4[nH]3)c(=NC(=O)c3ccc(Cl)cc3)oc12
(A) 0 (no)

(Q) Test call for this compound, please: O=C(CC(O)c1ccncc1)c1ccccc1 (centres undefined)
(A) 0 (no)

(Q) Lab log entry: C=C1C(=O)O[C@H]2[C@H]1CC/C(Cn1cc(-c3ccc(N)cc3)nn1)=C\CC[C@@]1(C)O[C@@H]21 — outcome as called in the assay?
(A) 1 (yes)

Further cases:
(Q) Test call, this compound: CCOC(=O)C(Cc1ccccc1)n1c(O)c(C=Nc2ccc(C(=O)OCCN(CC)CC)cc2)sc1=O (centres undefined)
(A) 0 (no)
